target: T1, mouse programmed cell death protein 1 Fc fusion protein (mPD-1-Fc), mPD-1 C60S (aa 25-167) (Mus musculus, UniProt Q02242, stabilised); test: SPR; Carterra LSA; Fab from the ammonium sulfate precipitate of the culture supernatant immobilised on a NiHC200M chip; hPD-1 (1-1024 nM) or mPD-1-Fc (4-1024 nM) as analyte, fourfold dilution series, no regeneration; HBS-EP pH 7.4, 25 °C; medians over the spots of a construct, KD = koff/kon; details: one partner purified
T1 construct: not cleaved; source: Expi293F, purified (Protein A, SEC; dimeric fraction); not shown: Fc (human), C-terminal, kept
pKd: −log10 of the molar value.
Decide by pKd: equal to or exceeding 7 means y, less means n.

BINDER | CLASS
toripalimab Fab H.K65A (Fab, V domains shown, heavy chain of Sm3 with this change; numbers count from the chain's first residue; as the light chain of Sm3; source: Brevibacillus, culture supernatant (ammonium sulfate precipitate); not shown: 6xHis, C-terminal, kept; 6xHN, C-terminal, kept) VH: QGQLVQSGAEVKKPGASVKVSCKASGYTFTDYEMHWVRQAPIHGLEWIGVIESETGGTAYNQKFAGRVTITADKSTSTAYMELSSLRSEDTAVYYCAREGITTVATTYYWYFDVWGQGTTVTVSS VL: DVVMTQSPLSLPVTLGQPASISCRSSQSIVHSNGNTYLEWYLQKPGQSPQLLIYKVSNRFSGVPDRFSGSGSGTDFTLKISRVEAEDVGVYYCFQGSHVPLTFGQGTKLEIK | n
toripalimab Fab L.V99A (Fab, V domains shown, as the heavy chain of Sm3; light chain of Sm3 with this change; numbers count from the chain's first residue; source: Brevibacillus, culture supernatant (ammonium sulfate precipitate); not shown: 6xHis, C-terminal, kept; 6xHN, C-terminal, kept) VH: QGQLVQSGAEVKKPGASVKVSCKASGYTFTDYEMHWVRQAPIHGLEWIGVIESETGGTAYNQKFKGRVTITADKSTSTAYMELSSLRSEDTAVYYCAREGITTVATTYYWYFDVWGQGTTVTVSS VL: DVVMTQSPLSLPVTLGQPASISCRSSQSIVHSNGNTYLEWYLQKPGQSPQLLIYKVSNRFSGVPDRFSGSGSGTDFTLKISRVEAEDVGVYYCFQGSHAPLTFGQGTKLEIK | y
toripalimab Fab L.V30Y (Fab, V domains shown, as the heavy chain of Sm3; light chain of Sm3 with this change; numbers count from the chain's first residue; source: Brevibacillus, culture supernatant (ammonium sulfate precipitate); not shown: 6xHis, C-terminal, kept; 6xHN, C-terminal, kept) VH: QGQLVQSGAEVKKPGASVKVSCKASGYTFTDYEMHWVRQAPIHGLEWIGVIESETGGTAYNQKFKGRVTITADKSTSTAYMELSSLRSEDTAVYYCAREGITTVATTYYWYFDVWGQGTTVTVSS VL: DVVMTQSPLSLPVTLGQPASISCRSSQSIYHSNGNTYLEWYLQKPGQSPQLLIYKVSNRFSGVPDRFSGSGSGTDFTLKISRVEAEDVGVYYCFQGSHVPLTFGQGTKLEIK | n
toripalimab Fab L.V99K (Fab, V domains shown, as the heavy chain of Sm3; light chain of Sm3 with this change; numbers count from the chain's first residue; source: Brevibacillus, culture supernatant (ammonium sulfate precipitate); not shown: 6xHis, C-terminal, kept; 6xHN, C-terminal, kept) VH: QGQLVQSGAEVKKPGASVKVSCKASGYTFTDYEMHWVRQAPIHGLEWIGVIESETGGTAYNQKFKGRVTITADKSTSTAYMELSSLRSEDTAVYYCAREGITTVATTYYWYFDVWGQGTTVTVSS VL: DVVMTQSPLSLPVTLGQPASISCRSSQSIVHSNGNTYLEWYLQKPGQSPQLLIYKVSNRFSGVPDRFSGSGSGTDFTLKISRVEAEDVGVYYCFQGSHKPLTFGQGTKLEIK | n
toripalimab Fab H.E54A (Fab, V domains shown, heavy chain of Sm3 with this change; numbers count from the chain's first residue; as the light chain of Sm3; source: Brevibacillus, culture supernatant (ammonium sulfate precipitate); not shown: 6xHis, C-terminal, kept; 6xHN, C-terminal, kept) VH: QGQLVQSGAEVKKPGASVKVSCKASGYTFTDYEMHWVRQAPIHGLEWIGVIESATGGTAYNQKFKGRVTITADKSTSTAYMELSSLRSEDTAVYYCAREGITTVATTYYWYFDVWGQGTTVTVSS VL: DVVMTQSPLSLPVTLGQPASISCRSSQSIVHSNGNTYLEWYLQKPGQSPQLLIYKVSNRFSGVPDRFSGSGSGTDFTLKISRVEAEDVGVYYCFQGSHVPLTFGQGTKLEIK | n
toripalimab Fab L.V99H (Fab, V domains shown, as the heavy chain of Sm3; light chain of Sm3 with this change; numbers count from the chain's first residue; source: Brevibacillus, culture supernatant (ammonium sulfate precipitate); not shown: 6xHis, C-terminal, kept; 6xHN, C-terminal, kept) VH: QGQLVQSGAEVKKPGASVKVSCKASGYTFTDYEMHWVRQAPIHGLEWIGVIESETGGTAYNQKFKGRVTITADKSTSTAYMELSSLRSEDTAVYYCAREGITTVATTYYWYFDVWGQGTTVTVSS VL: DVVMTQSPLSLPVTLGQPASISCRSSQSIVHSNGNTYLEWYLQKPGQSPQLLIYKVSNRFSGVPDRFSGSGSGTDFTLKISRVEAEDVGVYYCFQGSHHPLTFGQGTKLEIK | n
